# System: UO-31 renal
# ASSAY PROCEDURE: NCI tumour cell line growth inhibition, 48 h; in the data active = GI50 below about 0.43 µM; inactive = the rest
Outcomes: active, inactive

MOLECULE	GROUP LABEL
Cc1cc(N2CCOCC2)nc(NCc2cc(Nc3ccnc4cc(Cl)ccc34)ccc2F)n1	inactive
COc1cc(-c2ccc[nH]2)[nH]c1/C=C1\N=C(C)C(CC(=O)OCC(C)(C)C)=C1C	active
COc1ccc2c(c1)/C(=N/OC(C)=O)c1c-2c(OC)nc2ccccc12	inactive
CC(=O)c1c(C)c2cnc(Nc3ccc(N4CCNCC4)cn3)nc2n(C2CCCC2)c1=O	inactive
O=C1/C(=C/c2ccc([N+](=O)[O-])o2)Oc2ccc(Cl)cc21	inactive
N#CC1=C(N)OC2=C(CCOc3c2ccc2ccccc32)C1c1ccc(Br)cc1 (centres undefined)	inactive
O=C1C(=C([O-])c2ccccc2)C(=O)c2ccccc21.O=C1C(=C([O-])c2ccccc2)C(=O)c2ccccc21.[Ni+2]	inactive
C(=N\Nc1ccc2ccccc2n1)/c1ccccn1	active
COC(=O)c1cc2cc(/C=C3/SC(=S)N(N(C(C)=O)C(C)=O)C3=O)oc2n1Cc1ccccc1	inactive
CSc1nc2c(c(=O)n1C)C(c1ccccc1)C1=C(N2)/C(=C/c2ccccc2)CCC1 (centres undefined)	inactive
COC(=O)c1cc(-c2ccc(S(C)(=O)=O)cc2)[nH]c1N/N=C/c1c(Cl)cccc1Cl	inactive
COc1ccc(-c2c(-c3ccc(C#N)c(F)c3)nc(N3CCC(N)CC3)n(C)c2=O)cc1F	inactive
CC(=O)[CH-]C(=O)c1ccccc1.CC(=O)[CH-]C(=O)c1ccccc1.CC(=O)[CH-]C(=O)c1ccccc1.[Ga+3]	inactive
CCC(=O)Nc1nnc(Cc2ccc(OC)c(OC)c2)s1	inactive
CCOC(=O)/C=C1/SC(=Nc2ccc(C#N)cc2)N(Cc2ccco2)C1=O	inactive
O=C1C(Cl)=C(NCCCN(CCCNC2=C(Cl)C(=O)c3ccccc3C2=O)C2=C(Cl)C(=O)c3ccccc3C2=O)C(=O)c2ccccc21	inactive
CC1=C(C(=O)Nc2ccc(Cl)c(Cl)c2)C(c2cccc(Cl)c2)NC(=S)N1 (centres undefined)	inactive
COC(=O)CC1=C(C)/C(=C/c2[nH]c(-c3ccc[nH]3)cc2OC)N=C1C	active
S=C(SSC(=S)N1CCCCC1)N1CCCCC1	inactive

----------
# Test system: KM12 colon
# ASSAY PROCEDURE: NCI tumour cell line growth inhibition, 48 h; in the data active = GI50 below about 0.43 µM; inactive = the rest
Outcomes: 1 = active, -1 = inactive

MOLECULE	GROUP LABEL
COc1cc(-c2ccc[nH]2)[nH]c1/C=C1\N=C(C)C(CC(=O)OCC(C)(C)C)=C1C	1
CC1=C(C(=O)Nc2ccc(Cl)c(Cl)c2)C(c2cccc(Cl)c2)NC(=S)N1 (stereo not drawn)	-1
O=C1Cc2cc(CCN3CCNCC3)c(Cl)cc2N1	-1
FC(F)(F)c1cccc(-c2[nH]ncc2-c2nnnn2-c2ccccc2)c1	-1
COc1ccc2c(c1)C(=O)c1c-2n(CCCN(C)C)c(=O)c2cc([N+](=O)[O-])ccc12	1
COc1ccc2nc3ccccc3c(NCCNCC(C)O)c2c1 (stereo not drawn)	-1
C(=N\Nc1ccc2ccccc2n1)/c1ccccn1	-1
O=C1/C(=C/c2ccc(C(F)(F)F)cc2)COc2ccc(O)c(O)c21	-1
CC(=O)c1c(C)c2cnc(Nc3ccc(N4CCNCC4)cn3)nc2n(C2CCCC2)c1=O	-1
CCC(=O)Nc1nnc(Cc2ccc(OC)c(OC)c2)s1	-1
COc1ccc2c3/c(=C\c4ccc(N(C)C)cc4)c4ccccc4n3[n+](C)c2c1	1
COc1ccc2c(c1)/C(=N/OC(C)=O)c1c-2c(OC)nc2ccccc12	-1
CC1=C[C@@H]2c3c(c(O)c(O)c4oc5cc(O)cc(O)c5c(=O)c34)[C@@H](c3cc(O)c(O)c4oc5cc(O)cc(O)c5c(=O)c34)[C@@H]2C(C)(C)C1	-1

These entries and their values trace back to PubChem BioAssay (NCI).
